biological target: MOR; assay: Radioligand binding assay at μ opioid receptor; details: ratio of binding affinities MOR/DOR
Non-standard residues stand in square brackets, D forms with d. Residues, ends and D or L forms follow the SMILES beside them. *: point of attachment. NH(3,5-(CF3)2-benzyl) = FC(F)(F)c1cc(CN*)cc(C(F)(F)F)c1; NMePhe(4-F) = CN[C@@H](Cc1ccc(F)cc1)C(=O)O; Dmt = Cc1cc(O)cc(C)c1C[C@H](N)C(=O)O; NMeF = CN[C@@H](Cc1ccccc1)C(=O)O
measurement-label: Ki^μ/Ki^δ

Recorded result, CC(C)C[C@H](NC(=O)[C@@H]1CCCN1C(=O)CNC(=O)[C@H](Cc1ccccc1)N(C)C(=O)CNC(=O)[C@@H](C)NC(=O)[C@@H](N)Cc1ccc(O)cc1)C(=O)N[C@@H](Cc1c[nH]c2ccccc12)C(=O)NCc1cc(C(F)(F)F)cc(C(F)(F)F)c1 [AKG113] (H-Y[dA]G[NMeF]GPLW-{NH(3,5-(CF3)2-benzyl)}) , Ki^μ/Ki^δ: 1/15

Recorded result, CC(C)C[C@H](NC(=O)[C@@H]1CCCN1C(=O)[C@H](CO)NC(=O)[C@H](Cc1ccc(F)cc1)N(C)C(=O)CNC(=O)[C@@H](C)NC(=O)[C@@H](N)Cc1ccc(O)cc1)C(=O)N[C@@H](Cc1c[nH]c2ccccc12)C(=O)NCc1cc(C(F)(F)F)cc(C(F)(F)F)c1 [AKG134] (H-Y[dA]G[NMePhe(4-F)]SPLW-{NH(3,5-(CF3)2-benzyl)}) , Ki^μ/Ki^δ: 1/4

---
Recorded result, CC(C)C[C@H](NC(=O)[C@@H]1CCCN1C(=O)CNC(=O)[C@H](CO)NC(=O)[C@H](Cc1ccccc1)N(C)C(=O)CNC(=O)[C@@H](C)NC(=O)[C@@H](N)Cc1ccc(O)cc1)C(=O)N[C@@H](Cc1c[nH]c2ccccc12)C(=O)NCc1cc(C(F)(F)F)cc(C(F)(F)F)c1 [AKG-CRA-136] (H-Y[dA]G[NMeF]SGPLW-{NH(3,5-(CF3)2-benzyl)}) , Ki^μ/Ki^δ: 1/9

Recorded result, Cc1cc(O)cc(C)c1C[C@H](N)C(=O)N[C@H](C)C(=O)NCC(=O)N(C)[C@@H](Cc1ccccc1)C(=O)N[C@@H](CO)C(=O)N1CCC[C@H]1C(=O)N[C@@H](CC(C)C)C(=O)N[C@@H](Cc1c[nH]c2ccccc12)C(=O)NCc1cc(C(F)(F)F)cc(C(F)(F)F)c1 [AKG132] (H-[Dmt][dA]G[NMeF]SPLW-{NH(3,5-(CF3)2-benzyl)}) , Ki^μ/Ki^δ: 1/5

Recorded result, CC(C)C[C@H](NC(=O)[C@@H]1CCCN1C(=O)c1ccc(NC(=O)[C@H](Cc2ccccc2)N(C)C(=O)CNC(=O)[C@@H](C)NC(=O)[C@@H](N)Cc2ccc(O)cc2)cc1)C(=O)N[C@@H](Cc1c[nH]c2ccccc12)C(=O)NCc1cc(C(F)(F)F)cc(C(F)(F)F)c1 [AKG176] , Ki^μ/Ki^δ: 1/82

Recorded result, CC(C)C[C@H](NC(=O)[C@@H]1CCCN1C(=O)[C@H](Cc1ccc(F)cc1)NC(=O)CNC(=O)[C@@H](C)NC(=O)[C@@H](N)Cc1ccc(O)cc1)C(=O)N[C@@H](Cc1c[nH]c2ccccc12)C(=O)NCc1cc(C(F)(F)F)cc(C(F)(F)F)c1 [AKG190] , Ki^μ/Ki^δ: 20/1

* * *

# Kb per record follows
molecular target: NK1R (Cavia porcellus, UniProt P30547); construct: The longitudinal muscle with myenteric plexus (LMMP) was carefully separated from the circular muscle; from tissue; host or cells: guinea pig ileum longitudinal muscle with myenteric plexus; test: GPI/LMMP functional assay at NK1R (agonist and antagonist testing); format: cell-based, guinea pig
Sequence (P30547 whole entry): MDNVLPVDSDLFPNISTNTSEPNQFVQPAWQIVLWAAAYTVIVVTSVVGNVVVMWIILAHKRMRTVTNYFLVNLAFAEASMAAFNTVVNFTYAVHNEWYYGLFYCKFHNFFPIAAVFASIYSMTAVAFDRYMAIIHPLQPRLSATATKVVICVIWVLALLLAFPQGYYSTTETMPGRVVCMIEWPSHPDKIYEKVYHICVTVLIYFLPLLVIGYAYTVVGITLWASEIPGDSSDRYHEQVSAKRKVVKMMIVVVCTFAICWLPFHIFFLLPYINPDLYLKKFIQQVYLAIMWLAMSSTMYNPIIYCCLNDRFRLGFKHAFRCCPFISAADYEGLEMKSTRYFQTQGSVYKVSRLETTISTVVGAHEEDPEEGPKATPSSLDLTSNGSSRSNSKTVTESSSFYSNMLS

Param item: "CC(C)C[C@H](NC(=O)[C@@H]1CCCN1C(=O)Cc1ccc(NC(=O)[C@H](Cc2ccccc2)N(C)C(=O)CNC(=O)[C@@H](C)NC(=O)[C@@H](N)Cc2ccc(O)cc2)cc1)C(=O)N[C@@H](Cc1c[nH]c2ccccc12)C(=O)NCc1cc(C(F)(F)F)cc(C(F)(F)F)c1" ; param system: NK1R (Cavia porcellus, UniProt P30547); output Kb: 39.2 nM

Param item: "CC(C)C[C@H](NC(=O)[C@@H]1CCCN1C(=O)CCCNC(=O)[C@H](Cc1ccccc1)N(C)C(=O)CNC(=O)[C@@H](C)NC(=O)[C@@H](N)Cc1ccc(O)cc1)C(=O)N[C@@H](Cc1c[nH]c2ccccc12)C(=O)NCc1cc(C(F)(F)F)cc(C(F)(F)F)c1" ; param system: NK1R (Cavia porcellus, UniProt P30547); output Kb: 2.3 nM

Param item: "CC(C)C[C@H](NC(=O)[C@@H]1CCCN1C(=O)c1ccc(CNC(=O)[C@H](Cc2ccccc2)N(C)C(=O)CNC(=O)[C@@H](C)NC(=O)[C@@H](N)Cc2ccc(O)cc2)cc1)C(=O)N[C@@H](Cc1c[nH]c2ccccc12)C(=O)NCc1cc(C(F)(F)F)cc(C(F)(F)F)c1" ; param system: NK1R (Cavia porcellus, UniProt P30547); output Kb: 8.36 nM

---
Param item: "CC(C)C[C@H](NC(=O)[C@@H]1CCCN1C(=O)c1ccc(NC(=O)[C@H](Cc2ccccc2)N(C)C(=O)CNC(=O)[C@@H](C)NC(=O)[C@@H](N)Cc2ccc(O)cc2)cc1)C(=O)N[C@@H](Cc1c[nH]c2ccccc12)C(=O)NCc1cc(C(F)(F)F)cc(C(F)(F)F)c1" ; param system: NK1R (Cavia porcellus, UniProt P30547); output Kb: 117 nM

Param item: "CC(C)C[C@H](NC(=O)[C@@H]1CCCN1C(=O)CCCCCNC(=O)[C@H](Cc1ccccc1)N(C)C(=O)CNC(=O)[C@@H](C)NC(=O)[C@@H](N)Cc1ccc(O)cc1)C(=O)N[C@@H](Cc1c[nH]c2ccccc12)C(=O)NCc1cc(C(F)(F)F)cc(C(F)(F)F)c1" ; param system: NK1R (Cavia porcellus, UniProt P30547); output Kb: 11.2 nM

* * *

tested on: MOR; assay: Guinea pig isolated ileum (GPI) functional assay; assay type: cell-based; details: agonist activity, electrically stimulated tissue; read-out: GPI (MOR) IC50
Non-standard residues stand in square brackets, D forms with d. Residues, ends and D or L forms follow the SMILES beside them. *: point of attachment. NH(3,5-(CF3)2-benzyl) = FC(F)(F)c1cc(CN*)cc(C(F)(F)F)c1; NMeF = CN[C@@H](Cc1ccccc1)C(=O)O
measurement-label: pIC50
In textbook form, pIC50 equals minus log to base ten of the concentration in mol/L.

// worked examples, pIC50 included
Recorded result, Cc1cc(O)cc(C)c1C[C@H](N)C(=O)N[C@H](C)C(=O)NCC(=O)N[C@@H](Cc1ccccc1)C(=O)N1CCC[C@H]1C(=O)N[C@@H](CC(C)C)C(=O)N[C@@H](Cc1c[nH]c2ccccc12)C(=O)NCc1cc(C(F)(F)F)cc(C(F)(F)F)c1 [AKG116] , pIC50: 7.09

Recorded result, Cc1cc(O)cc(C)c1C[C@H](N)C(=O)N[C@H](C)C(=O)NCC(=O)N(C)[C@@H](Cc1ccc(F)cc1)C(=O)N1CCC[C@H]1C(=O)N[C@@H](CC(C)C)C(=O)N[C@@H](Cc1c[nH]c2ccccc12)C(=O)NCc1cc(C(F)(F)F)cc(C(F)(F)F)c1 [AKG128] , pIC50: 7.12

Recorded result, CC(C)C[C@H](NC(=O)[C@@H]1CCCN1C(=O)CCCCCNC(=O)[C@H](Cc1ccccc1)N(C)C(=O)CNC(=O)[C@@H](C)NC(=O)[C@@H](N)Cc1ccc(O)cc1)C(=O)N[C@@H](Cc1c[nH]c2ccccc12)C(=O)NCc1cc(C(F)(F)F)cc(C(F)(F)F)c1 [AKG124] , pIC50: 6.59

Query molecule follows.
Recorded result, CC(C)C[C@H](NC(=O)[C@@H]1CCCN1C(=O)[C@H](CO)NC(=O)[C@H](Cc1ccccc1)N(C)C(=O)CNC(=O)[C@@H](C)NC(=O)[C@@H](N)Cc1ccc(O)cc1)C(=O)N[C@@H](Cc1c[nH]c2ccccc12)C(=O)NCc1cc(C(F)(F)F)cc(C(F)(F)F)c1 [AKG126] (H-Y[dA]G[NMeF]SPLW-{NH(3,5-(CF3)2-benzyl)}) , pIC50: 6.62

* * *

# Log[IC50±] (μ) per record follows
biological target: MOR; test: Radioligand binding assay at μ opioid receptor; settings: log IC50 ± error
Non-standard residues stand in square brackets, D forms with d. Residues, ends and D or L forms follow the SMILES beside them. *: point of attachment. NH(3,5-(CF3)2-benzyl) = FC(F)(F)c1cc(CN*)cc(C(F)(F)F)c1; Dmt = Cc1cc(O)cc(C)c1C[C@H](N)C(=O)O; NMeF = CN[C@@H](Cc1ccccc1)C(=O)O
Reply with just the number.

Recorded result, "CC(C)C[C@H](NC(=O)[C@@H]1CCCN1C(=O)[C@H](CCC(N)=O)NC(=O)[C@H](Cc1ccccc1)NC(=O)CNC(=O)[C@@H](C)NC(=O)[C@@H](N)Cc1ccc(O)cc1)C(=O)N[C@@H](Cc1c[nH]c2ccccc12)C(=O)NCc1cc(C(F)(F)F)cc(C(F)(F)F)c1" , Log[IC50±] (μ): −7.06

Recorded result, Cc1cc(O)cc(C)c1C[C@H](N)C(=O)N[C@H](C)C(=O)NCC(=O)N(C)[C@@H](Cc1ccccc1)C(=O)N[C@@H](CO)C(=O)NCC(=O)N1CCC[C@H]1C(=O)N[C@@H](CC(C)C)C(=O)N[C@@H](Cc1c[nH]c2ccccc12)C(=O)NCc1cc(C(F)(F)F)cc(C(F)(F)F)c1 [AKG-CRA-137] (H-[Dmt][dA]G[NMeF]SGPLW-{NH(3,5-(CF3)2-benzyl)}) , Log[IC50±] (μ): −8.82

Recorded result, CC(C)C[C@H](NC(=O)[C@@H]1CCCN1C(=O)[C@H](CO)NC(=O)[C@H](Cc1ccccc1)N(C)C(=O)CNC(=O)[C@@H](C)NC(=O)[C@@H](N)Cc1ccc(O)cc1)C(=O)N[C@@H](Cc1c[nH]c2ccccc12)C(=O)NCc1cc(C(F)(F)F)cc(C(F)(F)F)c1 [AKG126] (H-Y[dA]G[NMeF]SPLW-{NH(3,5-(CF3)2-benzyl)}) , Log[IC50±] (μ): −8.30

---
Recorded result, "Cc1cc(O)cc(C)c1C[C@H](N)C(=O)N[C@H](C)C(=O)NCC(=O)N[C@@H](Cc1ccccc1)C(=O)N1CCC[C@H]1C(=O)N[C@@H](CC(C)C)C(=O)N[C@@H](Cc1c[nH]c2ccccc12)C(=O)NCc1cc(C(F)(F)F)cc(C(F)(F)F)c1" , Log[IC50±] (μ): −8.63
